# Lookup of reported protein stability index keyed by entry
B1: ZNF649 (parent)
chain: YHTGKTPFVCPECGQPCSQKSGLI

Variants of: B1
Experiment: protein stability index of a GFP-peptide fusion (GPS, HEK-293T) (PSI 1-6); higher = more stable;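 note: lentivirally expressed fusions sorted by FACS into six bins by GFP to DsRed ratio, PSI derived from sequencing read proportions per bin multiplied by bin number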
Conditions: c terminus: a fixed tail appended
Just the number, please.

- var: "I24V"
  measurement: 1.67
- var: "C10P"
  measurement: 1.54
- var: "K5Q"
  measurement: 1.86
- var: "C10G"
  measurement: 2.31
- var: "G22R"
  measurement: 2.22

Can you look up the measured protein stability index of `S21A` for me? 1.4

Now this one: `G14Y` 2.27
